EXPERIMENTAL TARGET: Sodium-dependent serotonin transporter (Homo sapiens)
Sequence (P31645 whole entry, looked up): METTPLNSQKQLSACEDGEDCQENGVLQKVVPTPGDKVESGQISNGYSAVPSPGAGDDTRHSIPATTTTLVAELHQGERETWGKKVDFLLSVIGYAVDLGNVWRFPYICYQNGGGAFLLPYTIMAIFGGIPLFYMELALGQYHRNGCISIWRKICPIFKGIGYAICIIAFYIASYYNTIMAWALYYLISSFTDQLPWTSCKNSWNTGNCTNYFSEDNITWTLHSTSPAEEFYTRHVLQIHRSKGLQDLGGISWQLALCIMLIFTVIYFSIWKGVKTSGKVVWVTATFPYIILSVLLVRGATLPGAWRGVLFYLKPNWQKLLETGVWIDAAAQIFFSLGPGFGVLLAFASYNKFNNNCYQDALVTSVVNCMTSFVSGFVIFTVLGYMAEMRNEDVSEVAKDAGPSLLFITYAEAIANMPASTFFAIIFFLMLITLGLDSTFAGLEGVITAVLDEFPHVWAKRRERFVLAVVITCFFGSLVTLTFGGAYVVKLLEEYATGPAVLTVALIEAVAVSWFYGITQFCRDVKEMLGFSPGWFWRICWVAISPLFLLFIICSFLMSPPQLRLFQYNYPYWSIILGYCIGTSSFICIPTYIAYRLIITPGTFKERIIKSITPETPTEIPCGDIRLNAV
PROTOCOL DETAILS: Percentage displacement of [3H]citalopram radioligand from serotonin transporter at concentration of 100 nM
QUANTITY KIND: Activity (%)

Previously resolved entries follow.
{"COMPOUND": "CNCCCC1(C)Cc2cc(Cl)ccc2N(c2ccc(C)cc2)C1=O (racemic)", "QUANTITY KIND": "Activity", "READING UNIT": "%", "ASSAY RESULT": 15}
{"COMPOUND": "CCc1ccc(N2C(=O)C(CCCNC)Cc3ccccc32)cc1 (racemic)", "QUANTITY KIND": "Activity", "READING UNIT": "%", "ASSAY RESULT": 3}
{"COMPOUND": "CNCCCC1(C)Cc2ccccc2N(c2ccc(C)cc2)C1=O (racemic)", "QUANTITY KIND": "Activity", "READING UNIT": "%", "ASSAY RESULT": 12}
{"COMPOUND": "CNCCCC1Cc2ccccc2N(c2ccc(C)cc2)C1=O (racemic)", "QUANTITY KIND": "Activity", "READING UNIT": "%", "ASSAY RESULT": 15}
{"COMPOUND": "CNCCCC1(C)Cc2ccccc2N(c2cc(F)cc(F)c2)C1=O (racemic)", "QUANTITY KIND": "Activity", "READING UNIT": "%", "ASSAY RESULT": 9}
{"COMPOUND": "CNCCCC1Cc2ccccc2N(c2cccc(F)c2)C1=O (racemic)", "QUANTITY KIND": "Activity", "READING UNIT": "%", "ASSAY RESULT": 9}
{"COMPOUND": "CNCCCC1Cc2ccccc2N(c2ccc(C(F)(F)F)cc2)C1=O (racemic)", "QUANTITY KIND": "Activity", "READING UNIT": "%", "ASSAY RESULT": 1}
{"COMPOUND": "CNCCCC1(C)Cc2ccccc2N(c2ccc(C(C)C)cc2)C1=O (racemic)", "QUANTITY KIND": "Activity", "READING UNIT": "%", "ASSAY RESULT": 5}

[1] CNCCCC1(C)Cc2ccccc2N(c2ccccc2)C1=O (racemic)
[2] CNCCCC1Cc2ccccc2N(c2ccccc2)C1=O (stereo in doubt)
In: Field: lower Activity | Options: 1 / 2 Label of pick, please.
Out: 2

[1] CNCCCC1(C)Cc2ccccc2N(c2ccc(F)c(F)c2)C1=O (racemic)
[2] CNCCCC1Cc2ccccc2N(c2ccccc2)C1=O (single isomer, unassigned; isomer 1)
In: Sorting ascending by Activity, which comes first: 1 or 2 ? Selection: enter the item's label.
Out: 2

[1] CNCCCC1Cc2ccccc2N(c2ccc(Cl)cc2)C1=O (configuration not stated)
[2] CCC1(CCCNC)Cc2ccccc2N(c2ccccc2)C1=O (racemic)
In: Which of the two items, 1 and 2 , has the greater recorded Activity? Mark your answer with the label of the selected entry.
Out: 2
(2: 12%, 1: 8%)

* * *

EXPERIMENTAL TARGET: Sodium-dependent dopamine transporter (Homo sapiens, UniProt Q01959)
Sequence (Q01959 whole entry): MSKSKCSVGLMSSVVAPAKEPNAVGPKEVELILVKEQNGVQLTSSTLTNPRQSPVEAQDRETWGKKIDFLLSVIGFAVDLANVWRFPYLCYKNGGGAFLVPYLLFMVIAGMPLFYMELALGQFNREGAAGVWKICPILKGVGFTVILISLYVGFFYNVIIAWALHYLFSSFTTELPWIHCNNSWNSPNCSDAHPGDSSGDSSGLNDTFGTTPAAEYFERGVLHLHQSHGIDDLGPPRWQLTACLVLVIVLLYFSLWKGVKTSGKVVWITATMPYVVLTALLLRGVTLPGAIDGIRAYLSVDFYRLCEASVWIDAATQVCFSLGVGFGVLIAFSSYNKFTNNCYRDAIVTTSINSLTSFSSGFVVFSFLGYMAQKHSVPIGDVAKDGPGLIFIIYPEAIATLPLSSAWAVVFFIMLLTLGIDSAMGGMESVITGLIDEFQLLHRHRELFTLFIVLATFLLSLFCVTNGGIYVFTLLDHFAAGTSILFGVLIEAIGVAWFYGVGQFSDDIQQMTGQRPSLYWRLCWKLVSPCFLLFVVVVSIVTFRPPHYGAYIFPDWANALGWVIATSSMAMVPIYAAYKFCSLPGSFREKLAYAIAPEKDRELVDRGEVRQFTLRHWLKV
PROTOCOL DETAILS: Percentage displacement of [3H]WIN-35428 radioligand from dopamine transporter at concentration of 1000 nM
QUANTITY KIND: Activity (%)

Field: example entries. Status: answers known.
{"COMPOUND": "CNCCCC1(C)Cc2ccccc2N(c2ccc(F)c(F)c2)C1=O (racemic)", "ASSAY RESULT": 50}
{"COMPOUND": "CCC1(CCCNC)Cc2ccccc2N(c2ccc(C)cc2)C1=O (racemic)", "ASSAY RESULT": 11}
{"COMPOUND": "CNCCCC1Cc2ccccc2N(c2ccccc2)C1=O (single isomer, unassigned; isomer 1)", "ASSAY RESULT": 11}
{"COMPOUND": "CNCCCC1Cc2ccccc2N(c2ccc(C(F)(F)F)cc2)C1=O (racemic)", "ASSAY RESULT": 12}

[A] CNCCCC1Cc2ccccc2N(c2ccc(Cl)cc2)C1=O (stereo not drawn)
[B] CNCCC1Cc2ccccc2N(c2ccccc2)C1=O (single isomer, unassigned; isomer 1)
[C] CNCCCC1Cc2ccccc2N(c2ccc(F)cc2)C1=O (racemic)
[D] CCC1(CCCNC)Cc2cc(Cl)ccc2N(c2ccc(C)cc2)C1=O (racemic)
In: Ascending sort, Activity. A ranking is expressed here by listing the labels in the requested order.
Out: D, C, B, A

* * *

EXPERIMENTAL TARGET: Sodium-dependent dopamine transporter (Homo sapiens)
PROTOCOL DETAILS: Percentage displacement of [3H]WIN-35428 radioligand from dopamine transporter at concentration of 1000 nM
QUANTITY KIND: Activity (%)

{"COMPOUND": "CNCCCC1(C)Cc2ccccc2N(c2ccc(C)cc2)C1=O (racemic)", "ASSAY RESULT": 3}

[a] CNCCCC1Cc2ccccc2N(c2cccc(Cl)c2)C1=O (racemic)
[b] CNCCCC1(C)Cc2ccccc2N(c2cc(F)cc(F)c2)C1=O (racemic)
In: Which is greater in Activity, the first item a or the second item b ? Kindly state the label of the option you pick.
Out: a

[P] CNCCCC1Cc2ccccc2N(c2ccc(C)cc2)C1=O (racemic)
[Q] CCc1ccc(N2C(=O)C(CCCNC)Cc3ccccc32)cc1 (racemic)
[R] CNCCCC1Cc2cc(F)ccc2N(c2ccc(C)cc2)C1=O (racemic)
[S] CCCC1(CCCNC)Cc2ccccc2N(c2ccccc2)C1=O (racemic)
In: Thanks in advance: please rank these 4 entries by Activity, highest to lowest. Write the labels, ordered according to the request.
Out: P, Q, R, S

[1] CNCCCC1Cc2ccccc2N(c2cccc(F)c2)C1=O (racemic)
[2] CNCCCC1(C(C)C)Cc2ccccc2N(c2ccc(C)cc2)C1=O (racemic)
In: Of the two listed items, which has the higher Activity? First: 1 Second: 2 Choose, then provide that item's label.
Out: 1

* * *

EXPERIMENTAL TARGET: UniProt P31645
PROTOCOL DETAILS: Percentage displacement of [3H]citalopram radioligand from serotonin transporter at concentration of 100 nM
QUANTITY KIND: Activity (%)

{"COMPOUND": "CNCCCC1Cc2ccccc2N(c2cccc(Cl)c2)C1=O (racemic)", "ASSAY RESULT": 7}

[I] CNCCCC1Cc2ccccc2N(c2ccc(Cl)c(Cl)c2)C1=O (racemic)
[II] CNCCCC1Cc2cc(F)ccc2N(c2ccc(C)cc2)C1=O (racemic)
In: Could you tell me which of these two has the smaller Activity figure? First: I Second: II Refer to your chosen item by its label in the answer.
Out: I
(I: 8%, II: 45%)

[A] CNCCCC1Cc2ccccc2N(c2ccccc2)C1=O (racemic)
[B] CNCCCC1Cc2ccccc2N(c2ccc(F)cc2)C1=O (racemic)
In: Look at A and B . Which one has the lower recorded Activity number? Answer by quoting the chosen item's label.
Out: A

[a] CNCCC1Cc2ccccc2N(c2ccccc2)C1=O (stereo in doubt)
[b] CCCC1(CCCNC)Cc2ccccc2N(c2ccccc2)C1=O (racemic)
[c] CNCCC1Cc2ccccc2N(c2ccccc2)C1=O (single isomer, unassigned; isomer 1)
In: Please order the records by their reported Activity, lowest number first. In plain terms: list the labels in the order you were asked to.
Out: c, a, b

* * *

EXPERIMENTAL TARGET: Sodium-dependent noradrenaline transporter (Homo sapiens, UniProt P23975)
Sequence (P23975 whole entry): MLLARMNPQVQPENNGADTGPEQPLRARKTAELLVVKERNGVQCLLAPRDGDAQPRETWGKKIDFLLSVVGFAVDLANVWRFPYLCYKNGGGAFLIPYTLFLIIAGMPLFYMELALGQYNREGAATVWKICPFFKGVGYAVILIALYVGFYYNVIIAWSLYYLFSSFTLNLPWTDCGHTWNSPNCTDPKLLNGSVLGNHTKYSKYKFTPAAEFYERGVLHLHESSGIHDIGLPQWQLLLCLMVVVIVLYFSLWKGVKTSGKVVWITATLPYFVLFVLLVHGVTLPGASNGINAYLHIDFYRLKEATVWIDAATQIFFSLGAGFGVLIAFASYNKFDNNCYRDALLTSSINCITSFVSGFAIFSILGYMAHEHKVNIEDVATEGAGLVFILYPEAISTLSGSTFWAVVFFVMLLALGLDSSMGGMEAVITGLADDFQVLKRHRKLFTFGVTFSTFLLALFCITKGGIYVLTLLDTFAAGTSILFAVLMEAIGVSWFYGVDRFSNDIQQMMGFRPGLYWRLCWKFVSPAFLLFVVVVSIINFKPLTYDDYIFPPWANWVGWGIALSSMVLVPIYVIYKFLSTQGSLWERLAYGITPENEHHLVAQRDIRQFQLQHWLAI
PROTOCOL DETAILS: Inhibition of monoamine reuptake at norepinephrine transporter
QUANTITY KIND: Ki (nM)

Would you please look over these solved cases?
{"MOLECULE": "CCCC1(CCCNC)Cc2ccccc2N(c2ccc(C)cc2)C1=O (racemic)", "Ki [nM]": 11}
{"MOLECULE": "CNCCCC1Cc2ccccc2N(c2ccc(C(F)(F)F)cc2)C1=O (racemic)", "Ki [nM]": 1430}
{"MOLECULE": "CNCCCC1(C)Cc2cc(Cl)ccc2N(c2ccc(C)cc2)C1=O (racemic)", "Ki [nM]": 43}
{"MOLECULE": "CNCCCC1Cc2ccccc2N(c2ccccc2)C1=O (single isomer, unassigned; isomer 1)", "Ki [nM]": 8}

[1] CNCCCC1Cc2cc(F)ccc2N(c2ccc(C)cc2)C1=O (racemic)
[2] CNCCCC1(C)Cc2ccccc2N(c2cccc(C)c2)C1=O (racemic)
In: # return whichever of 1 and 2 has the smaller Ki Return value: the label identifying the chosen record.
Out: 1

[A] CCCCC1(CCCNC)Cc2ccccc2N(c2ccc(C)cc2)C1=O (racemic)
[B] CNCCC1Cc2ccccc2N(c2ccccc2)C1=O (single isomer, unassigned; isomer 1)
In: Please indicate which entry, A or B , has the lower recorded Ki value. Let me know the label of the one you choose.
Out: A

* * *

EXPERIMENTAL TARGET: Sodium-dependent noradrenaline transporter (Homo sapiens, UniProt P23975)
PROTOCOL DETAILS: Inhibition of monoamine reuptake at norepinephrine transporter
pKi: −log10 of the molar value.
QUANTITY KIND: pKi

Below, 5 compounds whose answers are already recorded.
{"COMPOUND": "CNCCCC1(C(C)C)Cc2ccccc2N(c2ccc(C)cc2)C1=O (racemic)", "EXPERIMENTAL TARGET": "Sodium-dependent noradrenaline transporter (Homo sapiens, UniProt P23975)", "QUANTITY KIND": "pKi", "ASSAY RESULT": 6.82}
{"COMPOUND": "CCCC1(CCCNC)Cc2ccccc2N(c2ccccc2)C1=O (racemic)", "EXPERIMENTAL TARGET": "Sodium-dependent noradrenaline transporter (Homo sapiens, UniProt P23975)", "QUANTITY KIND": "pKi", "ASSAY RESULT": 8.15}
{"COMPOUND": "CNCCCC1Cc2ccccc2N(c2cccc(Cl)c2)C1=O (racemic)", "EXPERIMENTAL TARGET": "Sodium-dependent noradrenaline transporter (Homo sapiens, UniProt P23975)", "QUANTITY KIND": "pKi", "ASSAY RESULT": 7.10}
{"COMPOUND": "CNCCCC1(C)Cc2ccccc2N(c2ccc(C)cc2)C1=O (racemic)", "EXPERIMENTAL TARGET": "Sodium-dependent noradrenaline transporter (Homo sapiens, UniProt P23975)", "QUANTITY KIND": "pKi", "ASSAY RESULT": 8.05}
{"COMPOUND": "CNCCCC1Cc2ccccc2N(c2ccc(Cl)c(Cl)c2)C1=O (racemic)", "EXPERIMENTAL TARGET": "Sodium-dependent noradrenaline transporter (Homo sapiens, UniProt P23975)", "QUANTITY KIND": "pKi", "ASSAY RESULT": 7.21}

[P] CCc1ccc(N2C(=O)C(CCCNC)Cc3ccccc32)cc1 (racemic)
[Q] CNCCC1Cc2ccccc2N(c2ccccc2)C1=O (stereo in doubt)
[R] CNCCCC1Cc2ccccc2N(c2ccc(F)cc2)C1=O (racemic)
[S] CNCCCC1Cc2ccccc2N(c2ccccc2)C1=O (racemic)
In: Sort the 4 compounds by pKi; largest first, smallest last. # the answer lists labels in the order requested
Out: S, Q, R, P
